Assay: C0 in NOD SCID mouse at 1 mg/kg, iv
Assay type: ADME, organism-based
Conditions: in vivo

>  <smiles.representation>
O=C(Nc1cc(Cl)cc(Cl)c1)Nc1nc2ccc([N+](=O)[O-])cc2s1

>  <C0 [µM]>
3.6

$$$$

====

Assay: Antiproliferative activity against human Sunitinib-resistant 786-R cells incubated for 48 hrs by XTT assay
Type: functional, cell-based

>  <smiles.representation>
O=C(Nc1ccccc1)Nc1nc2ccc([N+](=O)[O-])cc2s1

>  <IC50>
5 µM

$$$$
>  <smiles.representation>
O=C(Nc1cccc(Cl)c1)Nc1nc2ccc(-c3ccoc3)cc2s1

>  <IC50>
> 10 µM

$$$$
>  <smiles.representation>
Cc1ccc(NC(=O)Nc2nc3ccc([N+](=O)[O-])cc3s2)cc1

>  <IC50>
5 µM

$$$$
>  <smiles.representation>
O=C(Nc1cccc(Cl)c1)Nc1nc2cc([N+](=O)[O-])ccc2[nH]1

>  <IC50>
4 µM

$$$$
>  <smiles.representation>
O=C(Nc1cccc(Cl)c1)Nc1nc2cc([N+](=O)[O-])ccc2o1

>  <IC50>
> 25 µM

$$$$
>  <smiles.representation>
O=C(Nc1cccc(Cl)c1)Nc1nc2ccc(-c3ccsc3)cc2s1

>  <IC50>
> 25 µM

$$$$
>  <smiles.representation>
O=C(Nc1cccc(Cl)c1)Nc1nc2ccc(-c3ccccn3)cc2s1

>  <IC50>
8 µM

$$$$
>  <smiles.representation>
Cc1ccc(-c2ccc3nc(NC(=O)Nc4cccc(Cl)c4)sc3c2)s1

>  <IC50>
> 10 µM

$$$$
>  <smiles.representation>
Cc1nn(C)cc1-c1ccc2nc(NC(=O)Nc3cccc(Cl)c3)sc2c1

>  <IC50>
8 µM

$$$$
>  <smiles.representation>
O=C(Nc1cc(Cl)cc(Cl)c1)Nc1nc2ccc([N+](=O)[O-])cc2s1

>  <IC50>
3 µM

$$$$
>  <smiles.representation>
O=C(Nc1cccc(Cl)c1)Nc1nc2ccc(-c3cccs3)cc2s1

>  <IC50>
> 25 µM

$$$$
